# Tested on: N-acetyl-PPT deacetylase (Deac1 protein)
# Experiment notes: Nonradioactive test, substrate specificity of purified deacetylase (amino acid analyzer)
# Assay type: biochemical, Stenotrophomonas sp.
# Condition description: 25 mM substrate, 60 min, 28 °C, 5 μg enzyme; hippuric acid set equal to 100%
With a cut-off of 30%, any Rel. activity strictly below it is called criterion met; any Rel. activity meeting it or above is called criterion not met.

CC(=O)N[C@@H](CCC(=O)O)C(=O)O [N-Ac-glutamic acid, N-acetyl-L-glutamate] = criterion not met
CC(=O)N[C@@H](CCP(C)(=O)O)C(=O)O = criterion not met
CC(=O)N[C@H](C(=O)O)C(C)C = criterion met
CC(=O)N1CCCC1C(=O)O (stereo not shown) = criterion met
CC(=O)N[C@@H](Cc1cnc[nH]1)C(=O)O = criterion not met
CSCCC(NC(C)=O)C(=O)O (stereo not shown) = criterion met
CC(=O)NCC(=O)O = criterion not met
CC(=O)NC(CO)C(=O)O (stereo not shown) = criterion met
CC(=O)N[C@@H](Cc1ccc(O)cc1)C(=O)O = criterion met
CC(=O)N[C@@H](CC(C)C)C(=O)O = criterion not met

Values were extracted from patent US6555733B2.
